Source: patent US11084809B2

target: Human XIa (Homo sapiens (Human)); assay: Determination of the % inhibition for XIa; format: biochemical; settings: 40 μM test compound, 25° C.
Sequence (P03951 388-625): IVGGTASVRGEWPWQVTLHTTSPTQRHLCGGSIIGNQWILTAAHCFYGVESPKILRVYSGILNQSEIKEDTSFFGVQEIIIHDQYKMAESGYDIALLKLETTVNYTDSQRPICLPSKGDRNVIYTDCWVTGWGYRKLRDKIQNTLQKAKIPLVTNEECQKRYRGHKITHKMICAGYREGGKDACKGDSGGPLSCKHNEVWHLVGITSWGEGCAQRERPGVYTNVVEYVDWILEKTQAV
Sequence (P03951 19-387 partner): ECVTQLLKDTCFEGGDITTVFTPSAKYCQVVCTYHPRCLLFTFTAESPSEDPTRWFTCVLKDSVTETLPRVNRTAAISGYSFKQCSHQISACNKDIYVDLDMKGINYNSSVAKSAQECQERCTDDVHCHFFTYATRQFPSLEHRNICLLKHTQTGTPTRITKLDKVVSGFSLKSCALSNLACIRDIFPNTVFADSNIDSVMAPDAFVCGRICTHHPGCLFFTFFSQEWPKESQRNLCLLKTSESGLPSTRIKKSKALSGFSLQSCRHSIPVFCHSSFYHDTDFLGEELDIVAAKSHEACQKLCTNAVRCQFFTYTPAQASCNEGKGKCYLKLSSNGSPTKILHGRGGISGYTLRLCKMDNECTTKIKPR
# reported % Inhibition @ 40 μM (human FXIa); entries follow
State just the number; it will be interpreted in %.

| SMILES_RECORD | OBSERVATION_TYPE | OBS_VALUE |
| --- | --- | --- |
| COc1cccc(CNC(=O)c2cn(Cc3ccc(Cn4ccccc4=O)cc3)nc2C2CC2)c1F | % Inhibition @ 40 μM (human FXIa) | 1 |
| NC(=O)c1cccc(CNC(=O)c2cn(Cc3ccc(Cn4ccccc4=O)cc3)nc2C2CC2)c1 | % Inhibition @ 40 μM (human FXIa) | 0 |
| Nc1nn(Cc2ccc(Cn3ccccc3=O)cc2)cc1C(=O)NCc1ccc(OC(F)(F)F)cc1 | % Inhibition @ 40 μM (human FXIa) | 0 |

Now examine the next entry.
Query: Can you look up the measured % Inhibition @ 40 μM (human FXIa) of CCOc1cccc(CNC(=O)c2cn(Cc3ccc(Cn4cc(C)cn4)cc3)nc2C(F)(F)F)c1 for me?
Result: 0
